assay: Cytotoxicity activity of CBQs; type: cell-based; settings: human, A-431 cells; A-431 cell line

{"molecule": "Cc1ccc2sc3ccc4c(Cl)cccc4[n+]3c2c1 [CBQ-108]", "result_unit": "µM", "IC50": 3.7}
